Percent Effect listing for selected molecules.
- Tested on: Wolbachia pipientis
- method-summary: Anti-Wolbachia Cell-Based Screen
- Format: functional
- Parameters: scale not given: in the data most compounds retested in dose-response had high values
- protocol-conditions: 5 µM
Among all 48,000 compounds or so, about 13,000 (27%) showed an effect of 50% or more. Some of the results follow.
Field format: number, assumed %, no unit text.

- molecule: "Cc1cc(C)n(CC2CCCN2C(=O)CCc2cscn2)n1 (configuration not stated)"
  Percent Effect / %: -3.871

Give a short answer stating reported Percent Effect for `Cn1ccc(C(=O)N2C[C@@H]3OCCN(c4ncccn4)[C@@H]3C2)n1.O=C(O)C(F)(F)F` .
98.93

Give a short answer stating reported Percent Effect for `CCn1c(C)nnc1SCCNc1nc(C)nc2ncccc12` .
-6.645

Give a short answer stating reported Percent Effect for `CCn1cc(CN2C[C@H]3CC[C@@H]2CN(C(=O)c2ccncc2)C3)cn1` .
5.818

Give a short answer stating reported Percent Effect for CCOC(=O)c1n[nH]cc1CN1CCCC(N(C)Cc2ccccc2)C1 (configuration not stated) .
-2.39

Give a short answer stating reported Percent Effect for `O=S(=O)(Cc1ccccc1)NCc1ccnc(O)c1` .
-8.436

Give a short answer stating reported Percent Effect for CCc1c(C)[nH]c(C(C)(N)CC)nc1=O.Cl (configuration not stated) .
22.39
